# Organism: Rattus norvegicus
# ASSAY_REMARKS: Open TG-GATES - Regimen: Daily Repeat
# Assay type: toxicity, organism-based, Sprague-Dawley
# Set-up: regimen Daily Repeat, gender Male, age 6 weeks
# ASSAY_SETUP: in vivo, po, 1000 mg/kg, […], tissue Blood, route gavage, dose level High, time 28 day
API: label(entry) gives Fulfilled if the entry's Ret is strictly smaller than 3%; on equality or larger values it gives Not fulfilled.

# count of solved cases: 5
O=C(OC[C@H]1O[C@@H](OC(=O)c2cc(O)c(O)c(OC(=O)c3cc(O)c(O)c(O)c3)c2)[C@H](OC(=O)c2cc(O)c(O)c(OC(=O)c3cc(O)c(O)c(O)c3)c2)[C@@H](OC(=O)c2cc(O)c(O)c(OC(=O)c3cc(O)c(O)c(O)c3)c2)[C@@H]1OC(=O)c1cc(O)c(O)c(OC(=O)c2cc(O)c(O)c(O)c2)c1)c1cc(O)c(O)c(OC(=O)c2cc(O)c(O)c(O)c2)c1 | Not fulfilled
CN/C(=N/CCSCc1nc[nH]c1C)NC#N | Fulfilled
CNC(=C[N+](=O)[O-])NCCSCc1ccc(CN(C)C)o1 | Fulfilled
CCOc1ccc(NC(C)=O)cc1 | Not fulfilled
Cc1nnc2n1-c1ccc(Cl)cc1C(c1ccccc1Cl)=NC2 | Fulfilled

Say whether its Ret is strictly beneath 3%. Entry: COC(=O)C1=C(C)NC(C)=C(C(=O)OC)C1c1ccccc1[N+](=O)[O-] Not fulfilled

* * *

# Organism: Rattus norvegicus
# ASSAY_REMARKS: Open TG-GATES - Regimen: Daily Repeat
# Type: toxicity, organism-based, Sprague-Dawley
# Parameters: regimen Daily Repeat, gender Male, age 6 weeks
# ASSAY_SETUP: in vivo, po, 1000 mg/kg, […], tissue Blood, route gavage, dose level High, time 7 day
MEASUREMENT_KIND: Fbg (mg/dL)
Lab book: enter the figure in mg/dL, no units written.

Completed entries (count: 5):
COC(=O)C1=C(C)NC(C)=C(C(=O)OC)C1c1ccccc1[N+](=O)[O-] | 253.4
O=C(OC[C@H]1O[C@@H](OC(=O)c2cc(O)c(O)c(OC(=O)c3cc(O)c(O)c(O)c3)c2)[C@H](OC(=O)c2cc(O)c(O)c(OC(=O)c3cc(O)c(O)c(O)c3)c2)[C@@H](OC(=O)c2cc(O)c(O)c(OC(=O)c3cc(O)c(O)c(O)c3)c2)[C@@H]1OC(=O)c1cc(O)c(O)c(OC(=O)c2cc(O)c(O)c(O)c2)c1)c1cc(O)c(O)c(OC(=O)c2cc(O)c(O)c(O)c2)c1 | 227.4
Cc1nnc2n1-c1ccc(Cl)cc1C(c1ccccc1Cl)=NC2 | 282.6
CCOc1ccc(NC(C)=O)cc1 | 319.6
CNC(=C[N+](=O)[O-])NCCSCc1ccc(CN(C)C)o1 | 216.8

Just so you know, measured Fbg for CN/C(=N/CCSCc1nc[nH]c1C)NC#N came out at 235.6

* * *

# Species: Rattus norvegicus
# ASSAY_REMARKS: Open TG-GATES - Regimen: Single
# Format: toxicity, organism-based, Sprague-Dawley
# Design: regimen Single, gender Male, age 6 weeks
# ASSAY_SETUP: in vivo, po, 0 mg/kg, 9 h, tissue Plasma, route gavage, dose level Control
API: label(entry) gives Criterion met if the entry's BUN is strictly smaller than 10 mg/dL; on equality or larger values it gives Criterion not met.

# count of solved cases: 5
CC(C)NNC(=O)c1ccncc1 | Criterion not met
CN(C)CCC(c1ccc(Cl)cc1)c1ccccn1 (configuration not stated) | Criterion met
CN1C(=O)CCS(=O)(=O)C1c1ccc(Cl)cc1 (configuration not stated) | Criterion not met
O=C(OC[C@H]1O[C@@H](OC(=O)c2cc(O)c(O)c(OC(=O)c3cc(O)c(O)c(O)c3)c2)[C@H](OC(=O)c2cc(O)c(O)c(OC(=O)c3cc(O)c(O)c(O)c3)c2)[C@@H](OC(=O)c2cc(O)c(O)c(OC(=O)c3cc(O)c(O)c(O)c3)c2)[C@@H]1OC(=O)c1cc(O)c(O)c(OC(=O)c2cc(O)c(O)c(O)c2)c1)c1cc(O)c(O)c(OC(=O)c2cc(O)c(O)c(O)c2)c1 | Criterion not met
COC(=O)C1=C(C)NC(C)=C(C(=O)OC)C1c1ccccc1[N+](=O)[O-] | Criterion met

Next compound, please.
Say whether its BUN is strictly beneath 10 mg/dL. Entry: Brc1ccccc1 Criterion not met
